Tested on: 2Sb-muMax20 (muMax20 with two 1,3-bis(methyl)benzene Cys staples, A13C/A17C and Q88C/A92C, C-terminal Lys)
Assay: PBM 8-mer E-score (E-score (rank enrichment, -0.5 to 0.5)); higher = stronger preferential binding
The full ranking holds about 33,000 sequences; the median of “E-score (rank enrichment, -0.5 to 0.5)” is about -0.0028, and the highest 2% start at about 0.23. This excerpt belongs to a sample that is enriched for the highest values.
Label label 1 for high-side PBM 8-mer E-score (at or above 0.1) and label 0 for low-side PBM 8-mer E-score (below it).

input: Form field: PBM 8-mer E-score at least 0.1? Entry: CTATTTCC
output: label 1

input: Assess whether reported PBM 8-mer E-score for ATATTTCC sits at 0.1 or higher.
output: label 0

input: Form field: PBM 8-mer E-score at least 0.1? Entry: ACATGTTC
output: label 1

input: Determine whether this sequence has PBM 8-mer E-score no lower than 0.1: CTATTTCA
output: label 1

input: Does the reported PBM 8-mer E-score for ATTGAAGG fall at or above the 0.1 mark?
output: label 0

input: Is PBM 8-mer E-score for CTAAAGCC at or above 0.1?
output: label 0

input: Dear colleague, could you confirm whether ACATGTTA has PBM 8-mer E-score at or above 0.1?
output: label 1

input: Has ACATGTTG a recorded PBM 8-mer E-score greater than or equal to 0.1?
output: label 1

input: Assess whether reported PBM 8-mer E-score for CATGATTC sits at 0.1 or higher.
output: label 0

input: Confirm if PBM 8-mer E-score reported for the sequence CCATGTTA is 0.1 or above.
output: label 1

input: Evaluate CATATCCG : PBM 8-mer E-score at minimum 0.1?
output: label 0
